Tested on: CD69 expression on CD19+ B cells in human whole blood stimulated with anti-human IgD
Assay: In Vitro whole blood CD69 Assay
Type: cell-based
Conditions: Homo sapiens, B-cell, human heparinized whole blood, anti-human IgD stimulation overnight, percentage of CD19+ B cells expressing CD69, flow cytometry; read-out: IC50
pIC50: −log10 of the molar value.
Some compounds, each annotated with its measured pIC50.

- Compound: "C#CC(=O)NCC1CCCN(c2nc(-c3cnn(C)c3)cn3nccc23)C1 (centres unmarked)"
  pIC50: "< 5.00"
- Compound: "C=CC(=O)N1CC[C@@H]2[C@H](Oc3nc(-c4cnn(C)c4)cn4nccc34)C(C)(C)[C@@H]21"
  pIC50: "5.00 to 6.00"
- Compound: "Cn1cc(-c2cn3nccc3c(O[C@]3(C)C[C@H](N(C)C(=O)/C=C/C(F)(F)F)C3)n2)cn1"
  pIC50: "> 6.00"
- Compound: "C=CC(=O)N1CCCC[C@@H](Oc2nc(-c3cnn(C)c3)cn3nccc23)C1"
  pIC50: "< 5.00"
- Compound: "CC#CC(=O)N[C@H]1CC[C@@H](Oc2nc(-c3cnn(C)c3)cn3ncc(F)c23)C1"
  pIC50: "> 6.00"
- Compound: "C=CC(=O)N(C)CCOc1nc(-c2cnn(C)c2)cn2nccc12"
  pIC50: "5.00 to 6.00"
- Compound: "C=CC(=O)N1CCC[C@@H](Oc2nc(-c3cnn(C)c3)cn3nc(N)cc23)CC1"
  pIC50: "> 6.00"
- Compound: "C#CC(=O)NC1CCCN(c2nc(-c3cnn(C)c3)cn3nccc23)C1 (centres unmarked)"
  pIC50: "5.00 to 6.00"

* * *

Target: BTK (Homo sapiens (Human))
Sequence (Q06187 whole entry): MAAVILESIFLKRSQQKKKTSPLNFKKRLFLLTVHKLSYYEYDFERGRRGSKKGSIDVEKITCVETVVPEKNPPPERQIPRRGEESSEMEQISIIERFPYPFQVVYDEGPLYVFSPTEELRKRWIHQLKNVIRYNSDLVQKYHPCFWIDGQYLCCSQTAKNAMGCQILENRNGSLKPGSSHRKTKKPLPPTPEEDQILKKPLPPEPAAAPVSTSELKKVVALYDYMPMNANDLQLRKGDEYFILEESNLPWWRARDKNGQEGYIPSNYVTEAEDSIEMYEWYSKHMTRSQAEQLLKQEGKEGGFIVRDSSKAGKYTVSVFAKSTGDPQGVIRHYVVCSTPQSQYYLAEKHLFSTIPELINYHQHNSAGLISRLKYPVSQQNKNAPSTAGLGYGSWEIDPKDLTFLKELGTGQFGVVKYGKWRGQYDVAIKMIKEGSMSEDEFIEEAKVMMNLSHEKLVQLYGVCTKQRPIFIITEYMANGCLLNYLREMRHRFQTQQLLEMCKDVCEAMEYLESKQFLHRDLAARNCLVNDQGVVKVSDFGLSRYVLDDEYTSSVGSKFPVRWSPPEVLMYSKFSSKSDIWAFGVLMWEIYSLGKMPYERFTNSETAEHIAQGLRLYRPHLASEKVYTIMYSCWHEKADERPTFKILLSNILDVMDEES
Test: In Vitro BTK Kinase Assay: Btk-PolyGAT-LS Assay
Assay type: biochemical
Settings: BTK enzyme 0.25 nM, ATP 10 μM, polyGAT 100 nM, 30 minutes incubation, TRF readout; read-out: IC50
Some molecules, each annotated with its measured IC50.
Parameter: IC50

- Smiles string: "C=CC(=O)N1C[C@H]2C[C@@H](C1)[C@H]2COc1nc(-c2cnn(C)c2)cn2nccc12"
  Test system: "BTK (Homo sapiens (Human))"
  Measured: "< 1 nM"
- Smiles string: "C=CS(=O)(=O)N1CCC[C@@H](Oc2nc(-c3cnn(C)c3)cn3nccc23)C1"
  Test system: "BTK (Homo sapiens (Human))"
  Measured: "< 1 nM"
- Smiles string: "C=CC(=O)NC12CCC(Oc3nc(-c4cnn(C)c4)cn4nccc34)(CC1)C2"
  Test system: "BTK (Homo sapiens (Human))"
  Measured: "1 to 10 nM"
- Smiles string: "C=CC(=O)NCc1cccc(Oc2nc(-c3cnn(C)c3)cn3nccc23)c1"
  Test system: "BTK (Homo sapiens (Human))"
  Measured: "10 to 1000 nM"
- Smiles string: "C#CC(=O)N1CCC(Oc2nc(-c3cnn(C)c3)cn3nccc23)CC1"
  Test system: "BTK (Homo sapiens (Human))"
  Measured: "1 to 10 nM"
